Where these numbers come from: patent US20230348424A1

UniProtKB Q07889: reported Kd for various compounds.
Sequence (Q07889 564-1049): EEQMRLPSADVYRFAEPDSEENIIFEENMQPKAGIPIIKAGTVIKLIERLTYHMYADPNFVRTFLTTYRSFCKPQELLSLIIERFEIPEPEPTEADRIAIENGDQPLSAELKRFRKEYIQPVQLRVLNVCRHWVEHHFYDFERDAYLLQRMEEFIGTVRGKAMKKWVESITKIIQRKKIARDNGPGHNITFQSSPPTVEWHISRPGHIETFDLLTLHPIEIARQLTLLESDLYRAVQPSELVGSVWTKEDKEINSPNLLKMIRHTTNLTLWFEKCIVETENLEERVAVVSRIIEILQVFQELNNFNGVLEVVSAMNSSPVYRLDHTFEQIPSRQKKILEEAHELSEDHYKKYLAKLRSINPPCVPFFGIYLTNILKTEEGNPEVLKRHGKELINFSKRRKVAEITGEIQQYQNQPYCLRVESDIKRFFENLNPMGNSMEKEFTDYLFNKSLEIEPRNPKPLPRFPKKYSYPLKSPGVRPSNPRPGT
The reply should contain only the number, in nM.

# example entries with known answers
[[record]]
compound = "C[C@@H](NC(=O)c1cn([C@@H]2CC2(C)C)c(=O)cc1N[C@H]1[C@@H]2CN(C)C[C@@H]21)c1cccc(C(F)F)c1F (single isomer, unassigned)"
recorded_measurement = 7

[[record]]
compound = "Cc1c([C@@H](C)NC(=O)c2cn(C3CCOCC3)c(=O)cc2NC2CCN(CCF)CC2)cccc1C(F)(F)F"
recorded_measurement = 23

[[record]]
compound = "C[C@@H](NC(=O)c1cn(C23CC(C2)C3)c(=O)cc1N[C@H]1[C@@H]2CC[C@H]1CN(C)C2)c1cccc(C(F)F)c1F (single isomer, unassigned)"
recorded_measurement = 31


Give recorded Kd with UniProtKB Q07889 for the following compound: C[C@@H](NC(=O)c1cn(C23CC(C(F)(F)F)(C2)C3)c(=O)cc1N[C@H]1[C@@H]2CN(C)C[C@@H]21)c1cccc(C(F)F)c1F
19

Please do the same for C[C@@H](NC(=O)c1cn(C23CC(C2)C3)c(=O)cc1N[C@H]1[C@@H]2CN(C)C[C@@H]21)c1cccc(C(F)F)c1F as well.
9

Please do the same for C[C@@H](NC(=O)c1cn(C2(C(F)(F)F)CC2)c(=O)cc1N[C@H]1[C@@H]2CC[C@H]1CN(C)C2)c1cccc(C(F)F)c1F (single isomer, unassigned) as well.
25
